System: 266 human PDZ domains (PDZome)
assay: Holdup assay (chromatographic retention, PDZome-binding profile, BI)
Set-up: key: binding intensity: 0.00 = no binding, 1.00 = maximal binding
condition summary: PDZ domain PARD3B-3
*1 amine or outer side, *2 acyl side, *3 side chain or, on linkers, in order; H or OH if unused. Where a SMILES comes first, the peptide text is derived from it. The star is where a group is joined. X1 = O=C(CCCC[C@@H]1SC[C@@H]2NC(=O)N[C@@H]21)NCCCOCCOCCOCCCN*; Suc = O=C(CCC(=O)[*:2])[*:1]
observation type: BI
Form: value (number only, do not type unit).

CC[C@H](C)[C@H](NC(=O)[C@H](CCC(N)=O)NC(=O)[C@@H](NC(=O)[C@H](Cc1c[nH]cn1)NC(=O)[C@H](CCC(N)=O)NC(=O)[C@H](CC(=O)O)NC(=O)[C@H](CCC(=O)O)NC(=O)[C@H](CC(=O)O)NC(=O)CCC(=O)NCCCOCCOCCOCCCNC(=O)CCCC[C@@H]1SC[C@@H]2NC(=O)N[C@@H]21)[C@@H](C)O)C(=O)N[C@H](C(=O)N[C@@H](CCCCNC(C)=O)C(=O)N[C@H](C(=O)O)C(C)C)[C@@H](C)O [PTEN_Ac] :: -0.007
CC[C@H](C)[C@H](NC(=O)[C@H](CCC(N)=O)NC(=O)[C@@H](NC(=O)[C@H](Cc1c[nH]cn1)NC(=O)[C@H](CCC(N)=O)NC(=O)[C@H](CC(=O)O)NC(=O)[C@H](CCC(=O)O)NC(=O)[C@H](CC(=O)O)NC(=O)[C@H](Cc1ccccc1)NC(=O)[C@@H]1CCCN1C(=O)CCC(=O)NCCCOCCOCCOCCCNC(=O)CCCC[C@@H]1SC[C@@H]2NC(=O)N[C@@H]21)[C@@H](C)O)C(=O)N[C@H](C(=O)N[C@@H](CCCCN)C(=O)N[C@H](C(=O)O)C(C)C)[C@@H](C)O [PTEN_13] ({X1-Suc}-PFDEDQHTQITKV-OH) :: 0.134
CC[C@H](C)[C@H](NC(=O)[C@H](CCC(N)=O)NC(=O)[C@@H](NC(=O)[C@H](Cc1c[nH]cn1)NC(=O)[C@H](CCC(N)=O)NC(=O)[C@H](CC(=O)O)NC(=O)[C@H](CCC(=O)O)NC(=O)[C@H](CC(=O)O)NC(=O)CCC(=O)NCCCOCCOCCOCCCNC(=O)CCCC[C@@H]1SC[C@@H]2NC(=O)N[C@@H]21)[C@@H](C)O)C(=O)N[C@H](C(=O)N[C@@H](CCCNC(=N)N)C(=O)N[C@H](C(=O)O)C(C)C)[C@@H](C)O [PTEN_KR] ({X1-Suc}-DEDQHTQITRV-OH) :: -0.035

// switching to the query compound
BI in this record for CC[C@H](C)[C@H](NC(=O)[C@H](CCC(N)=O)NC(=O)[C@@H](NC(=O)[C@H](Cc1c[nH]cn1)NC(=O)[C@H](CCC(N)=O)NC(=O)[C@H](CC(=O)O)NC(=O)[C@H](CCC(=O)O)NC(=O)[C@H](CC(=O)O)NC(=O)CCC(=O)NCCCOCCOCCOCCCNC(=O)CCCC[C@@H]1SC[C@@H]2NC(=O)N[C@@H]21)[C@@H](C)O)C(=O)N[C@H](C(=O)N[C@@H](CCCCN)C(=O)N[C@H](C(=O)O)C(C)C)[C@@H](C)O [PTEN_11] : -0.026

Data origin: paper PMC7774954
